assay: Particle characteristics of LNPs containing EGFP mRNA and novel ionizable lipids; type: physicochemical; conditions: Table 21; EGFP mRNA LNP 1.6:54.6:32.8:10.9
Listing: Final Product PDI of selected molecules
Write the number on its own, no unit after it.

Solved entries:
Q) Query: Final Product PDI; subject: CCCCCC/C=C\CCON(C(=O)CCCCN(C)C)C(CCCCCCCCCC)CCCCCCC(=O)OCCC(CCCCCCC)CCCCCCC (stereo not shown)
A) 0.06

Q) Okay, and CCCCCCCCCCON(C(=O)CCCCN(C)C)C(CCCCCCCCCC)CCCCCCC(=O)OCCC(CCCCCCC)CCCCCCC (stereo not shown) ?
A) 0.04

Continuing:
Q) Query: Final Product PDI; subject: CCCCCCCCCCN(C(=O)CCCN(C)C)C(CCCCCCCCC)CCCCC(F)(F)C(=O)OCC(CCCCCC)CCCCCCCC (stereo not shown)
A) 0.09

Q) Okay, and CCCCC/C=C\CCCC(CCC/C=C\CCCCC)C(CCC/C=C\CCCCC)OC(=O)CCCCN(C)C (stereo not shown) [Compound 13-B43, reference compound] ?
A) 0.08

====

Listing: Final Product % EE of selected compounds
assay: Particle characteristics of LNPs containing luciferase mRNA and novel ionizable lipids; assay type: physicochemical; details: Table 6; luciferase mRNA LNP 1.6:54.6:32.8:10.9
Write the value in % as a bare number.

Solved entries:
Q) Query: Final Product % EE; subject: CCCCCCCCCCN(C(=O)CCCN(C)C)C(CCCCCCCCC)CCCCCCC(F)(F)C(=O)OC(CCCCC)CCCCC (stereo not drawn)
A) 99

Q) Okay, and CCCCCCCCCCC(CCCCCCCC(=O)OCC(CCCCCC)CCCCCCCC)N(CCCCCCCCC(=O)OCC(CCCCCC)CCCCCCCC)C(=O)CCCCN(C)C (stereo not drawn) ?
A) 99

Q) Okay, and CCCCCCCCCCN(C(=O)CCCN(C)C)C(CCCCCCCCC)CCCCCCC(F)(F)C(=O)OCC(CCCCCC)CCCCCCCC (stereo not drawn) ?
A) 99

Continuing:
Q) Query: Final Product % EE; subject: CCCCCCCCCCON(C(=O)CCCN(C)C)C(CCCCCCCCCC)CCCCCCC(=O)OCCC(CCCCC)CCCCC (stereo not drawn)
A) 99

Q) Okay, and CCCCCCCCCCN(C(=O)CCCN(C)C)C(CCCCCCCCC)CCCCCCC(F)(F)C(=O)OCCC(CCCCCCC)CCCCCCC (stereo not drawn) ?
A) 98

Q) Okay, and CCCCCCCCCCC(CCCCCCCC(=O)OCCC(CCCCC)CCCCC)N(CCCCCCCCC(=O)OCCC(CCCCC)CCCCC)C(=O)CCCCN(C)C (stereo not drawn) ?
A) 98

Q) Okay, and CCCCCCCCCCC(CCCCCCCC(=O)OC(CCCCCC)CCCCCC)N(CCCCCCCCCC)C(=O)CCCN(C)C (stereo not drawn) ?
A) 99

Q) Okay, and CCCCC/C=C\CCCC(CCC/C=C\CCCCC)C(CCC/C=C\CCCCC)OC(=O)CCCCN(C)C (stereo not drawn) [Compound 13-B43, reference compound] ?
A) 99

Q) Okay, and CCCCCCCCCCN(C(=O)CCCN(C)C)C(CCCCCCCCC)CCCCCCC(F)(F)C(=O)OCCC(CCCCCC)CCCCCC (stereo not drawn) ?
A) 95
